- Tested on: SUM149
- assay protocol: Cytotoxicity assay (Version 2, automated, AC50) with/without neutrophil elastase
- Type: cell-based
- condition details: SUM149, without (−) neutrophil elastase, Version 2, activity concentration at −50%
readout name: AC50

According to the records, this compound CCCNC(=O)Nc1cccc(S(=O)(=O)Nc2cccc([C@@H](CC(=O)O)NC(=O)Nc3ccc(NC(=O)NCCOCCOCCOCCC(=O)N[C@@H](CC(=O)O)C(=O)N4CCC[C@H]4C(=O)N[C@H](C(=O)N=S(C)(=O)Cc4cccc(Nc5ncnc(-c6ccc(F)cc6OC)n5)c4)C(C)C)cc3)c2)c1 (relative stereo) displays AC50 of > 1 µM

Field AC50 (entry `CCCNC(=O)Nc1cccc(S(=O)(=O)Nc2cccc([C@H](CC(=O)O)NC(=O)Nc3ccc(NC(=O)NCCOCCOCCOCCC(=O)N[C@@H](CC(=O)O)C(=O)N4CCC[C@H]4C(=O)N[C@H](C(=O)N=[S@@](C)(=O)Cc4cc5cc(c4)OCCCCOc4cc(F)ccc4-c4nc(ncc4F)N5)C(C)C)cc3)c2)c1` ) reads 0.1 to 1 µM

====

- Test system: 786-O
- assay protocol: Cytotoxicity in vitro (MTT) in presence/absence of elastase
- Format: cell-based, human
- condition details: with (+) 10 nM neutrophil elastase, 72 h
- Description: Cultivation of cells was performed according to standard procedures with the media recommended by the provider. The cells, in a total volume of 100 μL, were seeded in a 96-well plate with a white bottom (#3610). After a 24 h incubation period at 37° C. and […], the medium was exchanged by adding 90 μL fresh medium. […] The proliferation was detected using the MTT assay (ATCC). […] The formed dye was detected at 570 nm. […]
readout name: IC50

The compound identified as CCCNC(=O)Nc1cccc(S(=O)(=O)Nc2cccc([C@@H](CC(=O)O)NC(=O)Nc3ccc(NC(=O)NCCN(C)CCN(C)CCN(C)CC(=O)N[C@@H](CC(N)=O)C(=O)N4CCC[C@H]4C(=O)N[C@H](C(=O)N=[S@](C)(=O)Cc4cc5cc(c4)OCCCCCNc4cc(ccc4F)-c4nc(ncc4F)N5)C(C)C)cc3)c2)c1 (relative stereo) registered its IC50 at 1.1 to 10 nM

The value of IC50 measured for the compound CCCNC(=O)Nc1cccc(S(=O)(=O)Nc2cccc([C@H](CC(=O)O)NC(=O)Nc3ccc(NC(=O)NCCN(C)CCN(C)CCN(C)CC(=O)N[C@@H](CC(N)=O)C(=O)N4CCC[C@H]4C(=O)N[C@H](C(=O)N=[S@@](C)(=O)Cc4cc5cc(c4)OCCCCCNc4cc(ccc4F)-c4nc(ncc4F)N5)C(C)C)cc3)c2)c1 (relative stereo) turned out to be 1.1 to 10 nM

# compound `CCCNC(=O)Nc1cccc(S(=O)(=O)Nc2cccc([C@@H](CC(=O)O)NC(=O)Nc3ccc(NC(=O)NCCOCCOCCOCCC(=O)NCCCC[C@H](NC(=O)CCOCCOCCOCCNC(=O)Nc4ccc(NC(=O)N[C@H](CC(=O)O)c5cccc(NS(=O)(=O)c6cccc(NC(=O)NCCC)c6)c5)cc4)C(=O)NCCOCCOCCOCCC(=O)N[C@@H](CC(=O)O)C(=O)N4CCC[C@H]4C(=O)N[C@H](C(=O)N=[S@@](C)(=O)Cc4cc5cc(c4)OCCCCOc4cc(F)ccc4-c4nc(ncc4F)N5)C(C)C)cc3)c2)c1` ; its IC50 = 1.1 to 10 nM

Where these numbers come from: patent US20240408222A1
